Test: Human HepG2 cell viability assay in 384 well format
Format: toxicity, cell-based
Set-up: dose 125 nL, time 70.5 hour; concentration not given beside the values
Details: HepG2 cells, read-out: Inhibition
Assign cytotoxicity at 70.5 h to each entry below.
Answers are plain numbers, in %.

// below: answered molecules
Cn1c(=O)[nH]c(=O)c2cc(C(=O)N3CCCC3C3CCCC3)cnc21 (configuration not stated) : 22.8
CCC(=O)NC(c1ccc(C)cc1)c1cccc(S(C)(=O)=O)c1 (configuration not stated) : -11.9
N#CCC(=O)NCc1nnc2n1CCN(Cc1ccsc1)C2 : 9.84

For the 6 molecules below, give their cytotoxicity at 70.5 h values.
1. O=C([C@H]1C[C@H]2OCC[C@H]2N(CC2CC2)C1)N1CCCCO1
2. CC(C(=O)Nc1cccc(N2CCCCC2)c1)n1cncn1 (configuration not stated)
3. CCOc1no[n+]([O-])c1-c1ccccc1
4. CC(=O)NCC1CCN(Cc2nc(C3CC3)no2)CC1
5. CN(Cc1ccco1)[C@@H]1CN(Cc2cccnc2)[C@@H]2CCCO[C@H]12
6. Cc1ncc(-c2ccnc(N[C@@H](C)CO)n2)c(C2CCCCC2)n1

[-4.54, -6.3, -3.07, -6.87, -12.5, 24.8]
